target under test: Epidermal growth factor receptor (Homo sapiens, UniProt P00533)
Sequence (P00533 whole entry): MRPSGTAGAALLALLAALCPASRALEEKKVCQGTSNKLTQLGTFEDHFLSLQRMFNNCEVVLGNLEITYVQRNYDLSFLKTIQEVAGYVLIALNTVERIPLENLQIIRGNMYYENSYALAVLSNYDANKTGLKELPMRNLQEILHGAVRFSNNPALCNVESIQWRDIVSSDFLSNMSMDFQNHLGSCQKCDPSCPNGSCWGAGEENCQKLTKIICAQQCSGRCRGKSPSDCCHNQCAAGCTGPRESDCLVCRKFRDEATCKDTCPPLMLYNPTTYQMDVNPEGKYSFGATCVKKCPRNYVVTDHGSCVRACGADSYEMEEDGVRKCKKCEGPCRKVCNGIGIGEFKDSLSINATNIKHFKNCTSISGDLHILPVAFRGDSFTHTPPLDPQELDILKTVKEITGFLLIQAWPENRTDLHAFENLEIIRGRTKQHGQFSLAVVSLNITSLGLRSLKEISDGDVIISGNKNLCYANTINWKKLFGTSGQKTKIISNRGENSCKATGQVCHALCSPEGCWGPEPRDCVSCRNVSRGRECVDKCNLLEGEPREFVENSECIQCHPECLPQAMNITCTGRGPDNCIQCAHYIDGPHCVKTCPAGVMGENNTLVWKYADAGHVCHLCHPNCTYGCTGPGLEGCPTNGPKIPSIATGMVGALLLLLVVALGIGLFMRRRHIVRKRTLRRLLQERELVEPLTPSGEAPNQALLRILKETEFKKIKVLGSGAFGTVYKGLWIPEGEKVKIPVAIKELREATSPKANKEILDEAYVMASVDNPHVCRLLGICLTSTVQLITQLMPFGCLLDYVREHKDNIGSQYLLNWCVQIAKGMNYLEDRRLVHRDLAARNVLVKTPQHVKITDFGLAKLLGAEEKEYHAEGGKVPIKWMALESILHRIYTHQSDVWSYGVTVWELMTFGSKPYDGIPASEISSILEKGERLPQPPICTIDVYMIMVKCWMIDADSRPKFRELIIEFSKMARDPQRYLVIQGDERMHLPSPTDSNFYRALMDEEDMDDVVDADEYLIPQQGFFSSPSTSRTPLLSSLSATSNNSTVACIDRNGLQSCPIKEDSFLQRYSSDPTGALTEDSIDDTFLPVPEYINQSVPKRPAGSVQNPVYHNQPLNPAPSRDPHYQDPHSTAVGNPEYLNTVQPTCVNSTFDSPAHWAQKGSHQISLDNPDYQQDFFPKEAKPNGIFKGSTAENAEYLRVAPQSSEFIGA
assay details: DRUGMATRIX: Protein Tyrosine Kinase, EGF Receptor enzyme inhibition (substrate: Poly(Glu:Tyr))
Type: cell-based, Insect cells
measurement setup: Not Active = under 50% inhibition at 10 µM; read-out: IC50
pIC50: −log10 of the molar value.
Binary classification by pIC50, with 5 as an inclusive lower bound for MET; all other cases are NOT MET.

- C1CCC(C(CC2CCCCN2)C2CCCCC2)CC1 (stereo unspecified): MET
- CN(C)CCCN1c2ccccc2Sc2ccc(Cl)cc21: NOT MET
- C[C@](N)(Cc1ccc(O)c(O)c1)C(=O)O: MET
- CSc1ccc(/C=C2/C(C)=C(CC(=O)O)c3cc(F)ccc32)cc1 [SULINDAC SULFIDE]: NOT MET
- Cc1cc(C(C#N)c2ccc(Cl)cc2)c(Cl)cc1NC(=O)c1cc(I)cc(I)c1O (stereo unspecified): MET
- N[C@@H](Cc1ccc(O)c(O)c1)C(=O)O: MET
